Target or system ROCK2 (Homo sapiens, UniProt O75116); metric pIC50; compiled from varied reports.
pIC50: −log10 of the molar value.

Prompt: Notebook entry, ROCK2 (Homo sapiens, UniProt O75116) assay: pIC50 of COc1cc(-n2nc(C)n(Cc3cc(F)ccc3F)c2=O)ccc1-c1cn[nH]c1 = ?
Completion: 7.30 to 8.30

Prompt: Which measured pIC50 belongs to COc1cc(N2C(=O)CN(Cc3ccccc3)C2=O)ccc1-c1cn[nH]c1 , tested on ROCK2 (Homo sapiens, UniProt O75116)?
Completion: 5.70 to 6.70

Prompt: What pIC50 appears in the records for this compound with ROCK2 (Homo sapiens, UniProt O75116)? CC(C)n1cc(-c2ccc3c(C(=O)NC4CC5(C4)CC(c4n[nH]c(=O)c6ccccc46)C5)cnn3c2)c(C(F)(F)F)n1 (stereo not drawn)
Completion: 8.70 to 9.70

Prompt: State its pIC50 on ROCK2 (Homo sapiens, UniProt O75116): COc1cccc(C(C)n2ccn(-c3ccc(-c4ccnc(N)n4)cc3)c2=O)c1 (single isomer, unassigned)
Completion: 7.70 to 8.68

Prompt: So what pIC50 did O=C1C(Nc2ccc(OC(F)F)cc2)CCN1c1ccc(-c2n[nH]c(=O)c3ccccc23)cc1 (stereo not drawn) get with ROCK2 (Homo sapiens, UniProt O75116)?
Completion: 7.00 to 8.00

---

Here, molecules appear alongside pIC50 reported for ROCK2 (Homo sapiens, UniProt O75116) in the literature.
pIC50: −log10 of the molar value.
Param threshold (7) applies to pIC50; output True when value >= threshold, False when value < threshold.

• COc1cc(C(=O)NCc2c(F)ccc(C)c2F)ccc1-c1cn[nH]c1 = True
• CCc1nc(N2CC3(CCN(C(=O)C(C)O)CC3)N(Cc3cc(F)cc(OC)c3)C2=O)ccc1-c1cn[nH]c1 (stereo not shown) = True
• COc1cccc(CN2C(=O)N(c3ccc(-c4cn[nH]c4)cc3)CC23CCN(CC2CCC(F)(F)CC2)CC3)c1 = True
• NC(=O)c1cccnc1Oc1ccc(CC(=O)Nc2nc3ccc(F)cc3n2CC2CC2)cc1F = True

Prompt: Hi team, for Cc1nccc(-c2nc(NC(=O)Cc3ccc(Oc4ncccc4C(N)=O)c(F)c3)sc2C)n1 , is the recorded pIC50 at or above 7?
Completion: True

Prompt: Please tell me: is the molecule O=C(NC1CCCC1)c1cccc([C@@H](CO)NC(=O)c2cccc(-c3ccncc3)c2)c1 at or over 7 in terms of pIC50?
Completion: True

Prompt: For this molecule, is measured pIC50 7 or higher? NC(=O)c1cccnc1O[C@H]1C[C@@]2(C[C@H](Nc3ncc4ccc(F)cc4n3)C2)C1 (stereo partly shown)
Completion: False

Prompt: Say whether NC(=O)c1cccnc1Oc1ccc(CC(=O)Nc2nc3ccccc3o2)cc1 shows pIC50 of 7 or more.
Completion: False

Prompt: Tell me whether pIC50 is at least 7 here: CCN(CCO)C(=O)c1cc2ccc(-c3nccc(Nc4ccc(-c5cn[nH]c5)cc4)n3)cc2[nH]1
Completion: False

Prompt: Hi team, for COc1cc(N2CCC3(CCN(C(=O)c4cn5[nH]c(=O)cc5nc4C)CC3)C2=O)ccc1-c1cn[nH]c1 , is the recorded pIC50 at or above 7?
Completion: False

Prompt: Does the molecule CN1CCN(c2ccc(C(=O)N3CCC4(CC3)CCN(c3ccc(-c5ccnc6[nH]ccc56)cc3)C4=O)cc2)CC1 have recorded pIC50 that is 7 or more?
Completion: True

Prompt: State whether the measured pIC50 reaches 7, counting equality as reaching it, for CC1(F)CN(C(=O)c2cc3ccc(-c4nccc(Nc5ccc(-c6cn[nH]c6)cc5)n4)cc3[nH]2)C1
Completion: False

Prompt: Does the molecule COc1cccc([C@@H](C)NC(=O)c2ccc(-c3c[nH]nc3C(C)O)cc2OC)c1 (stereo partly shown) have recorded pIC50 that is 7 or more?
Completion: False

Prompt: Test whether the molecule COc1cccc(CN2C(=O)N(c3ccc(-c4cn[nH]c4)cc3)CC23CCN(C)CC3)c1 records pIC50 of 7 or higher.
Completion: True

Prompt: Hi team, for NC[C@@H](NC(=O)c1ccc2cnccc2c1)c1ccccc1 , is the recorded pIC50 at or above 7?
Completion: True

Prompt: Dear colleague, could you confirm whether NC(=O)c1cccnc1O[C@H]1C[C@]2(C1)C[C@H](N1C(=O)N[C@@H](CC3CC3)C1=O)C2 (stereo partly shown) has pIC50 at or above 7?
Completion: True

Prompt: Dear colleague, could you confirm whether CN(C(=O)c1cc2ccc(-c3nccc(Nc4ccc5[nH]ncc5c4)n3)cc2s1)C1CCOC1 (stereo not shown) has pIC50 at or above 7?
Completion: False

---

Header: IC50 / ROCK2 (Homo sapiens) / multiple publications
The reply should contain only the number, in nM.

Answered examples (3):
- C[C@@H](NC(=O)c1ccc(-c2cn[nH]c2)c(OC(F)F)c1)c1ccc(F)cc1: 7.49
- O=C(Nc1cnncc1Cl)c1cc2ccc(-c3nccc(Nc4ccc5[nH]ncc5c4)n3)cc2[nH]1: 92
- COc1cc(-c2cn[nH]c2)c(F)cc1C(=O)N[C@H](C)c1ccccc1: 16.7

With those in mind, consider the next compound.
Prompt: What IC50 appears in the records for this compound with ROCK2 (Homo sapiens)? CC(C)(O)COc1ccn2nc(NC(=O)Cc3ccc(Oc4ncccc4C(N)=O)c(F)c3)nc2c1
Completion: 36

---

Listing of log10(IC50) toward ROCK2 (Homo sapiens, UniProt O75116), each taken from a published source.
Log10 applied to IC50; unit prior to transform: nM.

• NCC(C(=O)Nc1cc2ccncc2s1)c1ccc(CCCO[N+](=O)[O-])cc1 (stereo not shown) = 0.77
• O=C(COc1cccc(-c2nc(Nc3ccc4[nH]ncc4c3)c3ccccc3n2)c1)Nc1cccnc1 = 1.95
• CNCC(NC(=O)c1cccc(-c2ccc3[nH]nc(C)c3c2)c1)c1cccc(OC)c1 (stereo not shown) = 0.60
• COc1cccc(C(CN)NC(=O)c2cc(-c3ccc4[nH]nc(C)c4c3)cc3cccnc23)c1 (stereo not shown) = 1.23
• [H][C@]1(Oc2ncccc2C(N)=O)C[C@]2(C[C@@H](Nc3nccc(-c4ccncc4)n3)C2)C1 (stereo partly shown) = 2.75
• NC[C@@H](C(=O)Nc1cc2c(F)cncc2s1)c1ccc(CO[N+](=O)[O-])cc1 = 0.47
• NC(=O)c1cc2sccc2nc1OC1CC2(CC(NC(=O)C3CCC(F)(F)CC3)C2)C1 (stereo not shown) = 2.80
• COc1ccc(-n2ncc(C(=O)N[C@H]3C[C@]4(C3)C[C@H](Oc3nn(C5CC5)cc3C(N)=O)C4)c2C)cn1 (stereo partly shown) = 2.51

Prompt: Form: Entry = NC(=O)c1cccnc1Oc1ccc(CC(=O)Nc2nc3ccccc3s2)cc1 | System = ROCK2 (Homo sapiens, UniProt O75116) | log10(IC50) = ____
Completion: 2.29

Prompt: Lab note: need log10(IC50) with ROCK2 (Homo sapiens, UniProt O75116) for entry COc1cccc([C@@H](C)NC(=O)c2ccc(-c3c[nH]nc3CO)cc2OC)c1 , please look it up.
Completion: 1.64

Prompt: Record CC(C)(O)COc1ccc2c(C(=O)N[C@H]3C[C@]4(C3)C[C@H](Oc3nn(C(F)F)cc3C(N)=O)C4)cnn2c1C1CC1 (stereo partly shown) : what is its log10(IC50) with ROCK2 (Homo sapiens, UniProt O75116)?
Completion: 0.89

Prompt: Fill in the recorded log10(IC50) for this compound, with ROCK2 (Homo sapiens, UniProt O75116) as test system: O=C(NC(CO)c1cccc(F)c1)c1cccc(-c2ccc3[nH]nc(F)c3c2)c1 (stereo not shown)
Completion: 1.64

---

Here we gather pIC50 data for ROCK2 (Homo sapiens, UniProt O75116) reported by several publications.
pIC50: −log10 of the molar value.

Prompt: Recorded pIC50 for COc1cccc(CN2CCN(c3ccc(-c4cn[nH]c4)c(OC)n3)C2=O)c1 , please?
Completion: > 8.70

Prompt: Please give the measured pIC50 for this compound: COc1cccc(Cn2cnn(-c3ccc(-c4cn[nH]c4)cc3)c2=O)c1F
Completion: 7.30 to 8.30

Prompt: Please look up its pIC50: COc1cccc(CN2CCN(c3ccc(-c4cn[nH]c4)c(OC)n3)C2=O)c1F
Completion: 7.70 to 8.68

Prompt: Entry under review: CC(OC(=O)N1CCc2sc(-c3nccc(Nc4ccc5c(c4)CCNC5=O)n3)cc2C1)C(F)(F)F (stereo not shown) . Reported pIC50?
Completion: 7.48

Prompt: Item CC1(C)CN(c2ccc(-c3cn[nH]c3)cc2)C(=O)N1Cc1cccc(F)c1 has what recorded pIC50?
Completion: 7.70 to 8.68

Prompt: What value of pIC50 has been recorded for this entry: CCc1nc(-n2ccn(Cc3ccc(F)c(OC)c3)c2=O)ccc1-c1cn[nH]c1
Completion: 6.70 to 7.70

Prompt: Which pIC50 value is on record for COc1cc(N2CCC3(CCN(C(=O)c4ccc(-n5cncn5)nc4)CC3)C2=O)ccc1-c1cn[nH]c1 ?
Completion: 7.27

Prompt: May I ask what pIC50 has been recorded for [H][C@]1(c2n[nH]c(=O)c3ccccc32)C[C@]2(C[C@@H](NC(=O)c3cnc4cc(OC(F)F)ccn34)C2)C1 (stereo partly shown) ?
Completion: 8.70 to 9.70

Prompt: Which pIC50 value is on record for COc1cc(C(=O)NCc2cc(F)cc(F)c2F)ccc1-c1cn[nH]c1 ?
Completion: 8.12

Prompt: For O=C(NC1CCCN(c2ccncc2)C1)c1cc2ccc(-c3nccc(Nc4ccc(-c5cn[nH]c5)cc4)n3)cc2[nH]1 (stereo not shown) , what is its reported pIC50?
Completion: 8.10

Prompt: Could you tell me which pIC50 is on file for COc1cccc(CN2C(=O)N(c3ccc(-c4cn[nH]c4)cc3)CC23CCN(C(=O)OCCOCc2ccccc2)CC3)c1 ?
Completion: 7.52 to 8.52

Prompt: Suppose we examine the compound O=C1N(c2ccc(-c3ccncc3)cc2)CCC12Cc1ccccc1O2 (stereo not shown) ; what pIC50 value has been reported?
Completion: 7.52 to 8.52

Prompt: Look up pIC50: COc1cc(N2CC(CO)N(Cc3ccccc3)C2=O)ccc1-c1cn[nH]c1 (stereo not shown)
Completion: 7.70 to 8.68

Prompt: Quick check: pIC50 of COc1cccc(C(C)(C(N)=O)N2CCN(c3ccc(-c4cn[nH]c4)cc3)C2=O)c1 (stereo not shown) ?
Completion: 6.70 to 7.70

Prompt: What does the data say about its pIC50? Entry: CCc1nc(N2CCN(C(C)c3cc(F)cc(OC)c3)C2=O)ccc1-c1cn[nH]c1 (single isomer, unassigned)
Completion: 6.70 to 7.70
